The measurements presented in this section are drawn from paper PMC8301423.

Biological target: bovine serum albumin (BSA) (Bos taurus)
Construct: BSA, molecular weight of 66 kDa, 583 residues; purchased Sigma Aldrich Chemicals (Taufkirchen, Germany)
Test: Steady-state fluorescence titration of ANS with BSA at ambient pressure (binding isotherms)
Conditions: Binding constant Kb2, 250 mM Mg(ClO4)2, 25 °C, 1 bar, 10 mM Tris-HCl pH 7.4
MEASURED ATTRIBUTE: Kd (nM)
Hi! Could you send only the number? It should be in nM, unit omitted.

For O=S(=O)(O)c1cccc2cccc(Nc3ccccc3)c12 the molecule record lists Kd as 833

====

Target: bovine serum albumin (BSA) (Bos taurus)
Construct: BSA, molecular weight of 66 kDa, 583 residues; purchased Sigma Aldrich Chemicals (Taufkirchen, Germany)
Assay: High hydrostatic pressure fluorescence titration of ANS with BSA (1-2000 bar)
Type: binding
Conditions: Binding constant Kb1, 250 mM MgCl2, 5 °C, 1500 bar
MEASURED ATTRIBUTE: Kd (nM)
The reply should be a number in nM, with the unit left off.

Item O=S(=O)(O)c1cccc2cccc(Nc3ccccc3)c12 was tested on bovine serum albumin (BSA) (Bos taurus); the reported Kd is 556

====

Target: bovine serum albumin (BSA) (Bos taurus)
Construct: BSA, molecular weight of 66 kDa, 583 residues; purchased Sigma Aldrich Chemicals (Taufkirchen, Germany)
Test: High hydrostatic pressure fluorescence titration of ANS with BSA (1-2000 bar)
Type: binding
Conditions: Binding constant Kb2, 250 mM Mg(ClO4)2, 25 °C, 500 bar
MEASURED ATTRIBUTE: pKd
In textbook form, pKd equals minus log to base ten of the concentration in mol/L.

// recorded pKd for O=S(=O)(O)c1cccc2cccc(Nc3ccccc3)c12 [ANS, 8-anilinonaphthalene-1-sulfonic acid] : 6.04

====

Biological target: bovine serum albumin (BSA) (Bos taurus)
Construct: BSA, molecular weight of 66 kDa, 583 residues; purchased Sigma Aldrich Chemicals (Taufkirchen, Germany)
Test: High hydrostatic pressure fluorescence titration of ANS with BSA (1-2000 bar)
Format: binding
Settings: Binding constant Kb1, 250 mM MgSO4, 5 °C, 1 bar
MEASURED ATTRIBUTE: pKd
// pKd is dimensionless: -log10 of concentration (M)

For the compound O=S(=O)(O)c1cccc2cccc(Nc3ccccc3)c12 , the measured pKd on bovine serum albumin (BSA) (Bos taurus) was 5.79

====

Biological target: bovine serum albumin (BSA) (Bos taurus, UniProt P02769)
Construct: BSA, molecular weight of 66 kDa, 583 residues; purchased Sigma Aldrich Chemicals (Taufkirchen, Germany)
Sequence (P02769 25-607): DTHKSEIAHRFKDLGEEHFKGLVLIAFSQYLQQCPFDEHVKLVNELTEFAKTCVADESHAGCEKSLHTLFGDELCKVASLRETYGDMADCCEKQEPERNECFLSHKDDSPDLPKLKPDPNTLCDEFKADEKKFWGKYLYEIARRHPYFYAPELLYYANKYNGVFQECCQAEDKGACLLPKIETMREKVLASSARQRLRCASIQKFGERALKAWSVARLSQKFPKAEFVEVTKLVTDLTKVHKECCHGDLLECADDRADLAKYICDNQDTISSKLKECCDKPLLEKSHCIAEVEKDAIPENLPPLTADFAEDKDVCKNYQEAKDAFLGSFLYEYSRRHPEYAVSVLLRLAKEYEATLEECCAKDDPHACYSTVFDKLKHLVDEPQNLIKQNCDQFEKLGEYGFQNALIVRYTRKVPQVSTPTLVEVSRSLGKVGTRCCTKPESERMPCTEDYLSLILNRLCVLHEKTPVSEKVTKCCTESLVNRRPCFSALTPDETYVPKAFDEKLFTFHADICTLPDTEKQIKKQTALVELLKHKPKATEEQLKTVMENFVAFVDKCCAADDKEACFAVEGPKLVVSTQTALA
Assay: Steady-state fluorescence titration of ANS with BSA at ambient pressure (binding isotherms)
Settings: Binding constant Kb1, 250 mM Mg(ClO4)2, 25 °C, 1 bar, 10 mM Tris-HCl pH 7.4
MEASURED ATTRIBUTE: pKd
Scale for pKd: -log10 of concentration given in mol/L; no unit attached.

Recorded pKd for O=S(=O)(O)c1cccc2cccc(Nc3ccccc3)c12 on bovine serum albumin (BSA) (Bos taurus, UniProt P02769) was 5.77

====

Molecular target: bovine serum albumin (BSA) (Bos taurus, UniProt P02769)
Construct: BSA, molecular weight of 66 kDa, 583 residues; purchased Sigma Aldrich Chemicals (Taufkirchen, Germany)
Assay: Steady-state fluorescence titration of ANS with BSA at ambient pressure (binding isotherms)
Settings: Binding constant Kb1, 250 mM MgCl2, 5 °C, 1 bar, 10 mM Tris-HCl pH 7.4
MEASURED ATTRIBUTE: Kd
Note: a bare number is incomplete; add the unit.

Kd of O=S(=O)(O)c1cccc2cccc(Nc3ccccc3)c12 , assay on bovine serum albumin (BSA) (Bos taurus, UniProt P02769), is 1 µM
